Measured IC50 of individual entries
# Experimental System: Keap1/NRF2 (Homo sapiens)
# Construct: Keap1 (321-609) is diluted to 40 nM (2×) in 1× assay buffer
# Sequence (Q14145 321-609): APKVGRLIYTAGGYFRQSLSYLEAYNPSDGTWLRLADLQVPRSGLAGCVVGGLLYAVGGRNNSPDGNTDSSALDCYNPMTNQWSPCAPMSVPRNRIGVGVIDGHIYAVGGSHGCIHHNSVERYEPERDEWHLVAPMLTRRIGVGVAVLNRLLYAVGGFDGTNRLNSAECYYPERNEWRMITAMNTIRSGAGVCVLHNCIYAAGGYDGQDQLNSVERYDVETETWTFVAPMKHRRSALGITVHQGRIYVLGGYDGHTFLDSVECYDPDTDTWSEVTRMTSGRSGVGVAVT
# Method Notes: NRF2-Keap1 FP Assay (Kelch domain (321-609) of Keap1, TAMRA-labeled NRF2 ETGE peptide)
# Type: binding
# Test Context: Keap1 (321-609) 20 nM, Tamra labeled peptide 8 nM
# Description: One model for the NRF2-Keap1 interaction is through two binding sites in the Neh2 domain on NRF2. The two sites are referred to as the DLG binding motif (latch domain, uM affinity) and the ETGE binding motif (hinge domain, nM affinity). […] In the Keap1 Kelch fluorescence polarization (FP) assay, a TAMRA-labeled 16 mer peptide (AFFAQLQLDEETGEFL) containing the ETGE motif of NRF2 and the Kelch domain (321-609) of Keap1 is used. […]
Assay Readout: IC50

Molecule	Experimental System	Assay Readout	Assay Result
CCCC1CCc2cnn([C@@H]3CCC[C@H](c4cccc(-n5ncc(C(=O)O)c5C5CC5)c4)C3)c21 (mixture of isomers)	Keap1/NRF2 (Homo sapiens)	IC50	100 to 1000 nM
CCOC[C@@H]1CCCN1C(=O)C1CCCC(c2cccc(-n3ncc(C(=O)O)c3C3CC3)c2)C1 (single isomer, unassigned) [Example 18h]	Keap1/NRF2 (Homo sapiens)	IC50	1000 to 10000 nM
CCCCC1CCCC1N(C)C(=O)C1CCCC(c2cccc(-n3ncc(C(=O)O)c3C3CC3)c2)C1 (centres unmarked)	Keap1/NRF2 (Homo sapiens)	IC50	100 to 1000 nM
Cn1cc([C@@H]2C[C@H]2c2c(C(=O)O)cnn2-c2cccc(C3CCCN(S(=O)(=O)c4ccccc4)C3)c2)nn1 (some centres unmarked)	Keap1/NRF2 (Homo sapiens)	IC50	10 to 100 nM
CC(C)(C)OC(=O)N1CCCC(c2cccc(-n3ncc(C(=O)O)c3C3CC3)c2)C1 (centres unmarked)	Keap1/NRF2 (Homo sapiens)	IC50	> 10000 nM
Cn1cc([C@@H]2C[C@H]2c2c(C(=O)O)cnn2-c2cccc(N3CCC[C@@H](OCC4CCCCC4)C3)c2)nn1	Keap1/NRF2 (Homo sapiens)	IC50	100 to 1000 nM
Cn1cc(C2CC2c2c(C(=O)O)cnn2-c2cccc([C@H]3CCC[C@H](n4ncc5c4C(C)(C)CC5)C3)c2)nn1 (some centres unmarked)	Keap1/NRF2 (Homo sapiens)	IC50	10 to 100 nM
O=C(O)c1cnn(-c2cccc(C3CCCC(C(=O)N4CCCC4C4CC4)C3)c2)c1C1CC1 (racemic)	Keap1/NRF2 (Homo sapiens)	IC50	10 to 100 nM
O=C(O)c1cnn(-c2cccc(C3CCCC(C(=O)N4CCCC45CCCCC5)C3)c2)c1C1CC1 (racemic)	Keap1/NRF2 (Homo sapiens)	IC50	100 to 1000 nM
CC1(C)CCCN1C(=O)C1CCCC(c2cccc(-n3ncc(C(=O)O)c3C3CC3)c2)C1 (racemic)	Keap1/NRF2 (Homo sapiens)	IC50	100 to 1000 nM
Cn1cc([C@@H]2C[C@H]2c2c(C(=O)O)cnn2-c2cccc(C3CCCN(C(=O)C(C)(C)C)C3)c2)nn1 (some centres unmarked)	Keap1/NRF2 (Homo sapiens)	IC50	10 to 100 nM
CCCC1CCCCC1N(C)C(=O)C1CCCC(c2cccc(-n3ncc(C(=O)O)c3C3CC3)c2)C1 (centres unmarked)	Keap1/NRF2 (Homo sapiens)	IC50	100 to 1000 nM
CC1CCc2cnn([C@@H]3CCC[C@H](c4cccc(-n5ncc(C(=O)O)c5C5CC5)c4)C3)c21 (mixture of isomers)	Keap1/NRF2 (Homo sapiens)	IC50	100 to 1000 nM
Cn1cc([C@@H]2C[C@H]2c2c(C(=O)O)cnn2-c2cccc(C3CCCN(C(=O)OC(C)(C)C)C3)c2)nn1 (some centres unmarked)	Keap1/NRF2 (Homo sapiens)	IC50	10 to 100 nM
CCCCC1CCCN1C(=O)C1CCCC(c2cccc(-n3ncc(C(=O)O)c3C3CC3c3cn(C)nn3)c2)C1 (centres unmarked)	Keap1/NRF2 (Homo sapiens)	IC50	10 to 100 nM
O=C(O)c1cnn(-c2cccc(C3=CC(C(=O)N4CCCCCC4)CCC3)c2)c1C1CC1 (centres unmarked)	Keap1/NRF2 (Homo sapiens)	IC50	100 to 1000 nM
O=C(O)c1cnn(-c2cccc(C3CCCC(C(=O)N4CCCC4C4CCC4)C3)c2)c1C1CC1 (racemic)	Keap1/NRF2 (Homo sapiens)	IC50	10 to 100 nM
O=C(O)c1cnn(-c2cccc([C@@H]3CCC[C@H](C(=O)N4CCCC5(CCCC5)C4)C3)c2)c1C1CC1 (racemic)	Keap1/NRF2 (Homo sapiens)	IC50	100 to 1000 nM
CCCCC1CCCN1C(=O)C1CCCC(c2cccc(-n3ncc(C(=O)O)c3C3CC3)c2)C1 (racemic)	Keap1/NRF2 (Homo sapiens)	IC50	10 to 100 nM
CCOC[C@@H]1CCCN1C(=O)C1CCCC(c2cccc(-n3ncc(C(=O)O)c3C3CC3)c2)C1 (single isomer, unassigned) [Example 18g]	Keap1/NRF2 (Homo sapiens)	IC50	10 to 100 nM
